The reader will find reported pKi values listed item by item below.
- target.or.test.system: Alpha-2C adrenergic receptor (Homo sapiens, UniProt P18825)
- Sequence (P18825 whole entry): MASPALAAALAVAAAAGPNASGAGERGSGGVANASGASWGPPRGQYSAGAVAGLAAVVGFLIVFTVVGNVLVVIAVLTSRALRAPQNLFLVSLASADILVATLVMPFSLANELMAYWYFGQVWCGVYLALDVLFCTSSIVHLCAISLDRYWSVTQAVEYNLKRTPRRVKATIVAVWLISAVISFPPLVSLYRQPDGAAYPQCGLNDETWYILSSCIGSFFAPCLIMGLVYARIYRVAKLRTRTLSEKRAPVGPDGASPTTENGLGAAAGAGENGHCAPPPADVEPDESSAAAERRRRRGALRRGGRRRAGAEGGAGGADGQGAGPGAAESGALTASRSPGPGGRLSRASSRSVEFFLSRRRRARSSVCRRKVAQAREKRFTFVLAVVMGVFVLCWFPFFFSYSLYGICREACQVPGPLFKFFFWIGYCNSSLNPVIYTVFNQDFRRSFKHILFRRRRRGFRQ
Worth noting: pKi values are minus log10 of concentrations stated in mol/L.

| molecule | target.or.test.system | pKi |
| --- | --- | --- |
| CO[C@@H]1c2ccccc2[C@H]2C[C@]21c1cnc[nH]1 (relative stereo) | Alpha-2C adrenergic receptor (Homo sapiens, UniProt P18825) | 7.18 |
| CO[C@H]1c2ccccc2[C@H]2C[C@]21c1c[nH]cn1 (stereo in doubt; (-)-3) | Alpha-2C adrenergic receptor (Homo sapiens, UniProt P18825) | 6.71 |

Task: For the molecule CCC1(c2cnc[nH]2)Cc2ccccc2C1 [ATIPAMEZOLE] , what pKi is on record?
Result: 8.38

Task: For the molecule c1ccc2c(c1)C[C@]1(c3c[nH]cn3)C[C@H]21 (stereo in doubt; 1) , what pKi is on record?
Result: 9.75

###

- target.or.test.system: Alpha-2A adrenergic receptor (Homo sapiens, UniProt P08913)
- Sequence (P08913 whole entry): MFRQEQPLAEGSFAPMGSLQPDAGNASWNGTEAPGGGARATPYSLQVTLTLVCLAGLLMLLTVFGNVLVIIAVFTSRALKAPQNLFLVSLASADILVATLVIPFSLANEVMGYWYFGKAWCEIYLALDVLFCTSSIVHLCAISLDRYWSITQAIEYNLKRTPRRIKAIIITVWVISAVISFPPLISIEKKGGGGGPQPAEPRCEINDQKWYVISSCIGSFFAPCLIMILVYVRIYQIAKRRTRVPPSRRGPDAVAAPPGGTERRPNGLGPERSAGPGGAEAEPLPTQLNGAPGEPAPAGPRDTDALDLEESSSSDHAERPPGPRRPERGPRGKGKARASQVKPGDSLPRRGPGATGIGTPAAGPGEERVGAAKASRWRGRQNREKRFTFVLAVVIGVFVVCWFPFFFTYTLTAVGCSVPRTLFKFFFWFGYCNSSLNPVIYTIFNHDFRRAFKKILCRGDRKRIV
property.name: pKi
Worth noting: pKi values are minus log10 of concentrations stated in mol/L.

Task: Param readout = pKi; param system = Alpha-2A adrenergic receptor (Homo sapiens, UniProt P08913); param query = CO[C@H]1c2ccccc2[C@H]2C[C@]21c1c[nH]cn1 (relative stereo) ; response: value
Result: 8.76

Task: Param readout = pKi; param system = Alpha-2A adrenergic receptor (Homo sapiens, UniProt P08913); param query = c1ccc2c(c1)C[C@]1(c3c[nH]cn3)C[C@H]21 (stereo in doubt; (-)-1) ; response: value
Result: 10.55

Task: Param readout = pKi; param system = Alpha-2A adrenergic receptor (Homo sapiens, UniProt P08913); param query = `C[C@H]1[C@@H]2c3ccccc3C[C@]12c1c[nH]cn1` ; response: value
Result: 9.76

Task: Param readout = pKi; param system = Alpha-2A adrenergic receptor (Homo sapiens, UniProt P08913); param query = `CCC1(c2cnc[nH]2)Cc2ccccc2C1` ; response: value
Result: 8.73

Task: Param readout = pKi; param system = Alpha-2A adrenergic receptor (Homo sapiens, UniProt P08913); param query = CO[C@H]1c2ccccc2[C@H]2C[C@]21c1c[nH]cn1 (stereo in doubt; (-)-3) ; response: value
Result: 7.26

Task: Param readout = pKi; param system = Alpha-2A adrenergic receptor (Homo sapiens, UniProt P08913); param query = c1ccc2c(c1)[C@H]1C[C@@]1(c1c[nH]cn1)C21CC1 (stereo in doubt; (-)-10) ; response: value
Result: 8.41

Task: Param readout = pKi; param system = Alpha-2A adrenergic receptor (Homo sapiens, UniProt P08913); param query = CO[C@@H]1c2ccccc2[C@H]2C[C@]21c1cnc[nH]1 (relative stereo) ; response: value
Result: 7.93

Task: Param readout = pKi; param system = Alpha-2A adrenergic receptor (Homo sapiens, UniProt P08913); param query = C[C@H]1c2ccccc2[C@H]2C[C@]21c1cnc[nH]1 (relative stereo) ; response: value
Result: 9.66

Task: Param readout = pKi; param system = Alpha-2A adrenergic receptor (Homo sapiens, UniProt P08913); param query = CCO[C@H]1c2ccccc2[C@H]2C[C@]21c1c[nH]cn1 (relative stereo) ; response: value
Result: 8.48

Task: Param readout = pKi; param system = Alpha-2A adrenergic receptor (Homo sapiens, UniProt P08913); param query = CO[C@H]1c2ccccc2[C@H]2C[C@]21c1c[nH]cn1 (stereo in doubt; (+)-3) ; response: value
Result: 9.25

###

The reader will find reported Ki values listed item by item below.
- target.or.test.system: Alpha-1B adrenergic receptor (Homo sapiens, UniProt P35368)
- Sequence (P35368 whole entry): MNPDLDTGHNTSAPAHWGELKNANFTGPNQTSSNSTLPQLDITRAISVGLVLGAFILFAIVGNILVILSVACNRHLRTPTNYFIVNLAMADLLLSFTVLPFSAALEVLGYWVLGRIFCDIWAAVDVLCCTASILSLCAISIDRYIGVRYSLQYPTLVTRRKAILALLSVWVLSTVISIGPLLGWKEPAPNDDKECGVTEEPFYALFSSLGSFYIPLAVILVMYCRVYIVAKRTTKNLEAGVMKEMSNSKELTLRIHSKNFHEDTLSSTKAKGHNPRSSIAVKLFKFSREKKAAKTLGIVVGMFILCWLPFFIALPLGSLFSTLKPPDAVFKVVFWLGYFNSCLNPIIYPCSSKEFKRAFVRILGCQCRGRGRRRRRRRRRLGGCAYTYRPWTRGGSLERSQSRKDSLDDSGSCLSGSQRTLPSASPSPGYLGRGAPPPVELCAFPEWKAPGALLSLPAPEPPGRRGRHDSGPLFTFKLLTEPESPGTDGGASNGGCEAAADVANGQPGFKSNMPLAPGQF

| compound | target.or.test.system | Ki |
| --- | --- | --- |
| CO[C@@H]1c2ccccc2[C@H]2C[C@]21c1cnc[nH]1 (relative stereo) | Alpha-1B adrenergic receptor (Homo sapiens, UniProt P35368) | 912 nM |
| CCC1(c2cnc[nH]2)Cc2ccccc2C1 [ATIPAMEZOLE] | Alpha-1B adrenergic receptor (Homo sapiens, UniProt P35368) | 1950 nM |
| CO[C@H]1c2ccccc2[C@H]2C[C@]21c1c[nH]cn1 (stereo in doubt; (+)-3) | Alpha-1B adrenergic receptor (Homo sapiens, UniProt P35368) | 63.1 nM |
| CC[C@H]1c2ccccc2[C@H]2C[C@]21c1c[nH]cn1 (relative stereo) | Alpha-1B adrenergic receptor (Homo sapiens, UniProt P35368) | 40.7 nM |

Task: For the compound `C[C@H]1[C@@H]2c3ccccc3C[C@]12c1c[nH]cn1` , what Ki is on record?
Result: 33.1 nM

###

- Test system: Mus musculus
- procedure.summary: Ratio of ED50 for santihypothermic activity in po dosed NMRI mouse to ED50 for antihypothermic activity in ip dosed NMRI mouse
- Format: functional
property.name: Ratio ED50

As a guide, the following entries are already answered.
| compound | Ratio ED50 |
| --- | --- |
| C[C@H]1c2ccccc2[C@H]2C[C@]21c1c[nH]cn1 (relative stereo) | 1.5 |
| c1ccc2c(c1)C[C@]1(c3c[nH]cn3)C[C@H]21 (stereo in doubt; (-)-1) | 5 |
| c1ccc2c(c1)C[C@]1(c3cnc[nH]3)C[C@H]21 (stereo in doubt; (+)-1) | 3.5 |
| CCC[C@H]1c2ccccc2[C@H]2C[C@]21c1c[nH]cn1 (relative stereo) | 1.2 |
| CCCO[C@H]1c2ccccc2[C@H]2C[C@]21c1c[nH]cn1 (relative stereo) | 0.4 |
| c1ccc2c(c1)[C@H]1C[C@@]1(c1c[nH]cn1)C21CC1 (stereo in doubt; (-)-10) | 10.4 |

Task: For the compound CO[C@H]1c2ccccc2[C@H]2C[C@]21c1c[nH]cn1 (relative stereo) , what Ratio ED50 is on record?
Result: 3.1

Task: For the compound C[C@]12CC1(c1c[nH]cn1)Cc1ccccc12 (single isomer, unassigned) , what Ratio ED50 is on record?
Result: 11
